Taken from the supplement of paper PMC11908140.

B1: library; numbered along this chain (parent)
chain: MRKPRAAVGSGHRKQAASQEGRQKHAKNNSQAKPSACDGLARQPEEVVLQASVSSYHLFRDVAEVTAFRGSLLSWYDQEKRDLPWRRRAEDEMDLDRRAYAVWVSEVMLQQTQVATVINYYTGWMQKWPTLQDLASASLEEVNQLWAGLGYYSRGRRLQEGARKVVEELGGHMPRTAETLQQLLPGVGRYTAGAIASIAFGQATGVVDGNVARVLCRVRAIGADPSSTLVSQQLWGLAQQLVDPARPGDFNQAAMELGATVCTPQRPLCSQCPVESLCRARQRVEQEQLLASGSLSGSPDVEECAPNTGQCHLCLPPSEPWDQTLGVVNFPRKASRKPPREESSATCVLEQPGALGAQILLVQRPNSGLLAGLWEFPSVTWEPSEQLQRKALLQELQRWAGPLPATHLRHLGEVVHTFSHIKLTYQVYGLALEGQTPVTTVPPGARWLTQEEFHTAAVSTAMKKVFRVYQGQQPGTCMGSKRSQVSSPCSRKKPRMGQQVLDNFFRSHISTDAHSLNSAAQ

Variants of: B1
assay.notes: 8OG:A repair function score (normalized; synonymous = 0, nonsense = -1) (normalized log-likelihood score); higher = more repair activity (WT-like);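 also: cells sorted at 72 h after reporter transfection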
condition: with 8OG:A DNA repair reporter (GFP) in HEK-293 MUTYH KO cells
Classification field: t = 8OG:A repair function score at or over -0.04; f = 8OG:A repair function score under -0.04.

{"mutation.list": "L432N", "group": "f"}
{"mutation.list": "G201M", "group": "f"}
{"mutation.list": "P34L", "group": "t"}
{"mutation.list": "W103M", "group": "f"}
{"mutation.list": "V261W", "group": "f"}
{"mutation.list": "E275L", "group": "t"}
{"mutation.list": "L183M", "group": "f"}
{"mutation.list": "V53L", "group": "t"}
{"mutation.list": "R283I", "group": "f"}
{"mutation.list": "I359K", "group": "f"}
{"mutation.list": "Q484I", "group": "t"}
{"mutation.list": "Q310F", "group": "t"}
{"mutation.list": "G475V", "group": "t"}
{"mutation.list": "Q470P", "group": "f"}
{"mutation.list": "A371Q", "group": "f"}
{"mutation.list": "W399K", "group": "f"}
{"mutation.list": "A519T", "group": "t"}
{"mutation.list": "K481C", "group": "t"}
{"mutation.list": "Q499L", "group": "t"}
{"mutation.list": "Q43H", "group": "t"}
{"mutation.list": "L403P", "group": "f"}
{"mutation.list": "E45Y", "group": "t"}
